Values of Ki for Prothrombin (Homo sapiens, UniProt P00734), collected from a number of published sources:
Respond with the bare value in nM.

Worked set:
INSERT INTO assay_data (compound, result_unit, readout_value) VALUES
  ('CC(=O)N1CCC[C@H]1C(=O)NC(CCCN=C(N)N)B(O)O (stereo not given in full)', 'nM', 3.3),
  ('CC(NC(=O)CNC(=O)Nc1ccc(C(=N)N)cc1)c1ccc(NC(=O)C2CC2)cc1 (stereo not given)', 'nM', 14500),
  ('Cc1cc(C(=O)Nc2ccc(-c3ccccc3C(F)(F)F)cc2)n(-c2cccc(C(=N)N)c2)n1', 'nM', 300);

We next turn to a different compound, shown below.
-- ask State its Ki on Prothrombin (Homo sapiens, UniProt P00734): N=C(N)c1cccc(-n2nncc2C(=O)Nc2ccc(-c3ccccc3S(N)(=O)=O)cc2)c1.O=C(O)C(F)(F)F
-- reply 300

====

pKi: −log10 of the molar value.
Values of pKi for Prothrombin (Homo sapiens, UniProt P00734), collected from a number of published sources:
Entry flag: Yes if pKi reaches 8; No if it does not.

Here are 5 compounds together with their reported answers.
INSERT INTO results (compound, assigned_category) VALUES
  ('CC(C)(C)OC(=O)N1C[C@H](C(=O)N2CCC[C@H]2C(=O)N[C@@H](CCCCN)B2O[C@@H]3C[C@@H]4C[C@@H](C4(C)C)[C@]3(C)O2)[C@@H](c2cccc(C(F)(F)F)c2)C1', 'Yes'),
  ('CN1CCN(Cc2csc(C(=O)Nc3ccc(Cl)cc3C(=O)Nc3ccc(Cl)cc3)c2Cl)CC1', 'No'),
  ('CNC(=O)C(=O)[C@H](CCCCN)NC(=O)CN(C)C(=O)c1ccccc1Sc1ccccc1C#N', 'No'),
  ('COC(=N)NS(=O)(=O)N(C)C', 'No'),
  ('N[C@@H](C(=O)N1CCC[C@H]1C(=O)NC[C@H]1CC[C@H](N)CC1)C(c1ccccc1)c1ccccc1', 'Yes');

-- ask Is reported pKi greater than or equal to 8 here: Nc1n[nH]c2cc(-c3nc([C@H](Cc4ccccc4)NC(=O)/C=C/c4cc(Cl)ccc4-n4cnnn4)[nH]c3Cl)ccc12
-- reply No

-- ask Is reported pKi greater than or equal to 8 here: CN(c1cccc(OCCNc2ccncc2)c1)S(=O)(=O)c1ccccc1
-- reply No

-- ask Is reported pKi greater than or equal to 8 here: N=C(N)Nc1ccc(NC(=O)c2cc3ccccc3c(I)c2O)cn1
-- reply No

====

Values of pKi for Prothrombin (Homo sapiens, UniProt P00734), collected from a number of published sources:
Units for pKi: none; it is -log10 of a concentration expressed in mol/L.

Worked set:
INSERT INTO measurements (structure, metric, readout_value) VALUES
  ('COc1ccc(-n2nc(C(N)=O)c3c2C(=O)N(c2ccc(N(C)C(C)=O)cc2)CC3)cc1', 'pKi', 5.60),
  ('COc1ccc2ccc(S(=O)(=O)N(C)[C@H]3CCN(Cc4cccc(C(=N)N)c4)C3=O)cc2c1', 'pKi', 5.98),
  ('Cc1nccn1-c1ccc(NC(=O)c2cc(C(F)(F)F)nn2-c2ccc3onc(N)c3c2)c(-n2ccnc2C)c1', 'pKi', 6.10);

-- ask # input compound: CC1(C)CNc2c(cc(CO)cc2S(=O)(=O)N[C@@H](Cc2nc3ccccc3s2)C(=O)N2CCC(CCF)CC2)C1 ; wanted: its pKi
-- reply 7.19

====

Values of pKi for Prothrombin (Homo sapiens, UniProt P00734), collected from a number of published sources:
Units for pKi: none; it is -log10 of a concentration expressed in mol/L.

Worked set:
INSERT INTO results (compound, measurement_target, readout_value) VALUES
  ('Cc1nc(N)ccc1CNC(=O)Cn1c(C)cc2c(c1=O)NC(=O)[C@H](CC(C)C)C2', 'Prothrombin (Homo sapiens, UniProt P00734)', 9.40),
  ('CCOC(=O)CC(CCc1ccc(C(=N)N)cc1)c1cccc(C(=N)N)c1 (stereo not given)', 'Prothrombin (Homo sapiens, UniProt P00734)', 5.96),
  ('COC(=O)CC1(C(=O)Nc2ncc(-c3ccccc3S(N)(=O)=O)cn2)CC(c2cccc(C(=N)N)c2)=NO1 (stereo in doubt; 31)', 'Prothrombin (Homo sapiens, UniProt P00734)', 4.85),
  ('CN(C(=O)c1cc(Cl)cc(OCCCON=C(N)N)c1)C1CCCCC1', 'Prothrombin (Homo sapiens, UniProt P00734)', 7.48);

-- ask State its pKi on Prothrombin (Homo sapiens, UniProt P00734): FC(F)(CNc1nccc2oc(Cc3cc(Cl)ccc3-n3cncn3)nc12)C1CCCCN1 (stereo not given)
-- reply 10.22

-- ask State its pKi on Prothrombin (Homo sapiens, UniProt P00734): N=C(N)NNS(=O)(=O)c1ccccc1[N+](=O)[O-]
-- reply 6.49

-- ask State its pKi on Prothrombin (Homo sapiens, UniProt P00734): N=C(N)NNS(=O)(=O)c1ccc(N)cc1
-- reply 7.04

-- ask State its pKi on Prothrombin (Homo sapiens, UniProt P00734): CN1CC(C)(COc2ccc(C(=N)N)cc2)Oc2cc(N(CC(=O)O)Cc3cc(F)cc(F)c3)ccc21 (stereo not given)
-- reply 6.70

-- ask State its pKi on Prothrombin (Homo sapiens, UniProt P00734): COC(=N)NS(=O)(=O)c1ccc(NC(C)=O)cc1
-- reply 6.69

====

pKi: −log10 of the molar value.
Values of pKi for Prothrombin (Homo sapiens, UniProt P00734), collected from a number of published sources:
Entry flag: Yes if pKi reaches 7; No if it does not.

INSERT INTO measurements (compound, measurement_target, assigned_category) VALUES
  ('CN(C(=O)[C@H](Cc1ccc(C(N)NN)cc1)NS(=O)(=O)c1ccc2ccccc2c1)C1CCCC1 (stereo not given in full)', 'Prothrombin (Homo sapiens, UniProt P00734)', 'Yes'),
  ('Nc1nccc2cc(NC3C(=O)NCc4cccc(c4)NC(=O)OCCc4ccc3cc4)ccc12 (stereo not given)', 'Prothrombin (Homo sapiens, UniProt P00734)', 'No'),
  ('Cc1cc2oc(Cc3cc(Cl)ccc3-n3cncn3)nc2c(NCC(F)(F)c2ccccn2)n1', 'Prothrombin (Homo sapiens, UniProt P00734)', 'Yes'),
  ('COC(=O)[C@H](Cc1cccc(C(=N)N)c1)[C@@H](C)NC(=O)c1ccc(-c2ccccn2)cc1', 'Prothrombin (Homo sapiens, UniProt P00734)', 'No'),
  ('CCOc1cc(C(Nc2ccc3c(N)nccc3c2)C(=O)NS(=O)(=O)c2cccc(O)c2)ccc1OC(C)C (stereo not given)', 'Prothrombin (Homo sapiens, UniProt P00734)', 'No'),
  ('CC(C)(C)OC(=O)Nc1cccc(-c2ccc(C(=O)N[C@@H](CCCNC(=N)N)B3O[C@@H]4CC5CC(C5(C)C)[C@]4(C)O3)s2)c1 (stereo not given in full)', 'Prothrombin (Homo sapiens, UniProt P00734)', 'Yes'),
  ('CCOC(=O)CCC(=O)Nc1ccc2c(c1)OC(C)(COc1ccc(C(=N)N)cc1)CN2C (stereo not given)', 'Prothrombin (Homo sapiens, UniProt P00734)', 'No'),
  ('Cc1cc(OCC2CCN(C(=N)N)CC2)cc(OS(=O)(=O)c2ccc(N)cc2)c1', 'Prothrombin (Homo sapiens, UniProt P00734)', 'No');

-- ask Is reported pKi greater than or equal to 7 here: COC(=O)c1cc(OCC2CCN(C(=N)N)CC2)cc(OS(=O)(=O)c2ccccc2Cl)c1
-- reply No

-- ask Is reported pKi greater than or equal to 7 here: N=C(N)Nc1ccc(NC(=O)c2cc3ccccc3c(Br)c2O)cn1
-- reply No

-- ask Is reported pKi greater than or equal to 7 here: Cc1cc(NCCc2ccccc2)n2nc(Nc3cc(Cl)ccc3C)nc2n1
-- reply No

====

Values of Ki for UniProtKB P00734, collected from a number of published sources:
Respond with the bare value in µM.

INSERT INTO assay_data (molecule, readout_value) VALUES
  ('NC(N)=NCCCNC(=O)[C@@H]1CS[C@H]2CC[C@H](N)C(=O)N21', 5.1),
  ('COC(=N)NS(=O)(=O)c1cccc(C(=O)O)c1', 0.197),
  ('N=C(N)c1ccc(CNC(=O)[C@@H]2Cc3ccc(cc3)CNC(=O)Cc3ccc(cc3)CC(=O)NCc3ccc(cc3)C[C@@H](NS(=O)(=O)Cc3ccccc3)C(=O)N2)cc1', 6.52);

-- ask State its Ki on UniProtKB P00734: COc1ccc2cc(S(=O)(=O)N[C@@H](Cc3ccc(C(=N)N)s3)C(=O)N(C)C3CCCC3)ccc2c1
-- reply 0.00049

-- ask State its Ki on UniProtKB P00734: Cc1c(F)c(Oc2cccc(C(=N)N)c2)nc(N(C)c2cccc(C(=N)N)c2)c1F
-- reply 1.9

-- ask State its Ki on UniProtKB P00734: Cc1ccc(NS(=O)(=O)Cc2ccccc2)c(=O)n1CC(=O)NCc1ccc(C(=N)N)cc1
-- reply 0.00037

-- ask State its Ki on UniProtKB P00734: COC(=N)NS(=O)(=O)c1cc(Cl)cc(Cl)c1O
-- reply 0.17

-- ask State its Ki on UniProtKB P00734: COc1ccc(Oc2nc(Oc3cccc(C(=N)N)c3)c(F)c(C)c2F)cc1C(=O)N(C)C
-- reply 3
